Target: mu opioid receptor (MOR) (Homo sapiens, UniProt P35372)
Sequence (P35372 whole entry): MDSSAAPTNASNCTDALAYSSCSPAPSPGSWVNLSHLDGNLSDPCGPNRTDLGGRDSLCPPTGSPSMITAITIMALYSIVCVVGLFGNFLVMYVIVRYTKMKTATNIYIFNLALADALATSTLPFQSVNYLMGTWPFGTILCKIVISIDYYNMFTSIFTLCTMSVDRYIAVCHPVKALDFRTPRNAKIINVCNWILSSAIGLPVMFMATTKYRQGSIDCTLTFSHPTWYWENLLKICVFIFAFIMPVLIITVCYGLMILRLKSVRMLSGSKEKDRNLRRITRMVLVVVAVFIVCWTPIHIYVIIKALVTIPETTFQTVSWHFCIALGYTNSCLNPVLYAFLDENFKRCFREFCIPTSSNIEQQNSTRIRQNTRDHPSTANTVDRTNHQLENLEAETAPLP
Test: radioligand binding assay, mu opioid receptor affinity
Conditions: n in parentheses; read-out: Ki (nM ± SEM) MOR
Non-standard residues stand in square brackets, D forms with d. Residues, ends and D or L forms follow the SMILES beside them.
Ki values, listed per item
Respond with the bare value in nM.

Example entries and their recorded answers appear below.
[[record]]
compound = "O=C1N[C@H](Cc2c[nH]c3ccccc23)C(=O)N[C@@H](Cc2ccccc2)C(=O)N2CCC[C@@H]2C(=O)N[C@H]1Cc1ccccc1 [JVA 2802, cyclo[Phe-D-Pro-Phe-D-Trp], reference compound] (cyclo(F[dP]F[dW]))"
tested_system = "mu opioid receptor (MOR) (Homo sapiens, UniProt P35372)"
numeric_readout = 259

[[record]]
compound = "O=C1N[C@@H](Cc2ccccc2)C(=O)N2CCC[C@@H]2C(=O)N[C@H](Cc2ccccc2)C(=O)N[C@H]1Cc1c[nH]c2ccccc12 [JVA 3606, cyclo[Phe-D-Pro-D-Phe-Trp]] (cyclo(F[dP][dF]W))"
tested_system = "mu opioid receptor (MOR) (Homo sapiens, UniProt P35372)"
numeric_readout = 3920

[[record]]
compound = "O=C1N[C@H](Cc2ccccc2)C(=O)N[C@H](Cc2c[nH]c3ccccc23)C(=O)N[C@@H](Cc2ccccc2)C(=O)N2CCC[C@H]12 [JVA 3608, cyclo[Phe-D-Pro-D-Phe-D-Trp]] (cyclo(F[dP][dF][dW]))"
tested_system = "mu opioid receptor (MOR) (Homo sapiens, UniProt P35372)"
numeric_readout = 5800


Now look at this entry.
Qu. Query: Ki; subject: O=C1N[C@H](Cc2ccccc2)C(=O)N2CCC[C@@H]2C(=O)N[C@H](Cc2ccccc2)C(=O)N[C@H]1Cc1c[nH]c2ccccc12 [JVA 3607, cyclo-[D-Phe-D-Pro-D-Phe-Trp]] (cyclo([dF][dP][dF]W))
Ans. 7780

* * *

Experiment: rotorod test for sedation and motor coordination
Type: in vivo
Parameters: key: ✓ indicates tested (if no other comment then no significant effect)
Details: 10 mg/kg, p.o.
Non-standard residues stand in square brackets, D forms with d. Residues, ends and D or L forms follow the SMILES beside them.
assay-endpoint: Rotorod (10 mg/kg, p.o.)

[[record]]
compound = "O=C1N[C@H](Cc2ccccc2)C(=O)N2CCC[C@@H]2C(=O)N[C@H](Cc2ccccc2)C(=O)N[C@H]1Cc1c[nH]c2ccccc12 [JVA 3607, cyclo-[D-Phe-D-Pro-D-Phe-Trp]] (cyclo([dF][dP][dF]W))"
assay_endpoint = "Rotorod (10 mg/kg, p.o.)"
result = "✓"

[[record]]
compound = "O=C1N[C@@H](Cc2ccccc2)C(=O)N2CCC[C@@H]2C(=O)N[C@H](Cc2ccccc2)C(=O)N[C@H]1Cc1c[nH]c2ccccc12 [JVA 3606, cyclo[Phe-D-Pro-D-Phe-Trp]] (cyclo(F[dP][dF]W))"
assay_endpoint = "Rotorod (10 mg/kg, p.o.)"
result = "✓"

[[record]]
compound = "O=C1N[C@H](Cc2ccccc2)C(=O)N[C@H](Cc2c[nH]c3ccccc23)C(=O)N[C@H](Cc2ccccc2)C(=O)N2CCC[C@H]12 [JVA 3613, cyclo[D-Phe-D-Pro-D-Phe-D-Trp]] (cyclo([dF][dP][dF][dW]))"
assay_endpoint = "Rotorod (10 mg/kg, p.o.)"
result = "✓"

[[record]]
compound = "O=C1N[C@H](Cc2ccccc2)C(=O)N[C@H](Cc2c[nH]c3ccccc23)C(=O)N[C@@H](Cc2ccccc2)C(=O)N2CCC[C@H]12 [JVA 3608, cyclo[Phe-D-Pro-D-Phe-D-Trp]] (cyclo(F[dP][dF][dW]))"
assay_endpoint = "Rotorod (10 mg/kg, p.o.)"
result = "✓"

